- Test system: KM12
- measurement description: NCI tumour cell line growth inhibition, 48 h
Calls of active or inactive are those of the source. No stated cut-off is given here; in the data, active = GI50 up to about 1.1 µM and inactive = higher.
assay metric: GI50

Known results for compounds:
Qu. Consider the compound CCCCC(C(=O)C(=O)Nc1ccccc1CC)C(=O)C(C)C (stereo not given) and give its measured GI50.
Ans. > 100 µM (inactive)

Qu. Consider the compound COc1ccc(NC(=O)/C(CC2=Nc3ccc([N+](=O)[O-])cc3NC2O)=N\NC(=O)C[N+](C)(C)C)c(OC)c1 (stereo not given) and give its measured GI50.
Ans. 89.7 µM (inactive)

Qu. Consider the compound N#Cc1nc(-c2cnccn2)oc1N and give its measured GI50.
Ans. > 100 µM (inactive)

Qu. Consider the compound Cc1cc(C)c(C(=O)OC(c2ccccc2)C(c2ccccc2)N2CCOCC2)c(C)c1 (stereo not given) and give its measured GI50.
Ans. > 100 µM (inactive)

Qu. Consider the compound O=S(=O)(O)c1cc(/N=N/c2c(O)ccc3ccccc23)ccc1/C=C/c1ccc(/N=N/c2c(O)ccc3ccccc23)cc1S(=O)(=O)O and give its measured GI50.
Ans. > 100 µM (inactive)

Qu. Consider the compound CCOC(=O)C1=C(C)N(Cc2ccc(Cl)cc2Cl)C2(O)C=CC(=O)C3C(=O)N(c4ccccc4)C(=O)C132 (stereo not given) and give its measured GI50.
Ans. 1.71 µM (inactive)

Qu. Consider the compound CCN(CC)C(=O)Cn1c(-c2ccccc2)cc2ccccc21 and give its measured GI50.
Ans. 38.3 µM (inactive)

Qu. Consider the compound CC[C@@H](C)[C@@H]1NC(=O)C(C(C)=O)=C1O and give its measured GI50.
Ans. 15.6 µM (inactive)

---
Qu. Consider the compound Cc1c(C(=O)/C=C/C=C/c2ccccc2)[n+]([O-])c2ccccc2[n+]1[O-] and give its measured GI50.
Ans. 16.8 µM (inactive)

Qu. Consider the compound CN(O)C(=S)c1ccccc1 and give its measured GI50.
Ans. 5.86 µM (inactive)

Qu. Consider the compound Cc1nc(-n2nc(-c3ccccc3)cc2-c2ccccc2)sc1C(/C=C/c1ccc([N+](=O)[O-])cc1)=N/NC(N)=S and give its measured GI50.
Ans. 21.7 µM (inactive)

Qu. Consider the compound N=C(c1ccccc1)N(O)C1CCCCC1 and give its measured GI50.
Ans. > 100 µM (inactive)

Qu. Consider the compound O=C(CSCC(=O)N/N=C\c1ccc(-c2ccccc2)cc1)N/N=C\c1ccc(-c2ccccc2)cc1 and give its measured GI50.
Ans. 17.9 µM (inactive)

Qu. Consider the compound OC(c1ccccc1)(c1ccccc1)c1ccccn1 and give its measured GI50.
Ans. > 100 µM (inactive)

Qu. Consider the compound C=CCc1cccc2cc(C(=O)Nc3nc(C45CC6CC(CC(C6)C4)C5)cs3)c(=O)oc12 and give its measured GI50.
Ans. 28.1 µM (inactive)

Qu. Consider the compound CC(=O)Nc1ccc2cc(C)c(O)nc2n1 and give its measured GI50.
Ans. > 100 µM (inactive)

Qu. Consider the compound O=C(O)C[S+]([O-])c1ccc2c3c(cccc13)C(=O)c1ccccc1-2 (stereo not given) and give its measured GI50.
Ans. > 100 µM (inactive)

Qu. Consider the compound O=C1N/N=C\c2ccc(cc2)OCc2cccc(n2)COc2ccc(cc2)/C=N\NC1=O and give its measured GI50.
Ans. > 25 µM (inactive)

Qu. Consider the compound O=C1C=C2CC[C@H]3[C@@H]4CC[C@H](Oc5c6ccccc6nc6ccccc56)[C@H]4CC[C@@H]3[C@H]2CC1 and give its measured GI50.
Ans. 39.6 µM (inactive)

Qu. Consider the compound O=C1CS(=O)(=O)C(c2cccc(Oc3ccccc3)c2)N1c1ccc(Cl)cc1 (stereo not given) and give its measured GI50.
Ans. 14.8 µM (inactive)

* * *

- Test system: BT-549
- measurement description: NCI tumour cell line growth inhibition, 48 h
Active and inactive are the calls of the source. Cut-off read from the data, not from the text of the source: active = GI50 up to about 1.1 µM and inactive = higher.
Your answer must be one of the following: active, inactive

Examples with answers:
Qu. Could you please tell me the result logged for Oc1ccc(-c2nc(-c3ccc4ccccc4n3)c(-c3ccc(F)cc3)[nH]2)cc1 in this assay?
Ans. inactive

Qu. Could you please tell me the result logged for CCCCCCCCCCCC(=O)N(CCCCCCCCCCC(=O)O)CC(O)C(O)C(OC1OC(CO)C(O)C(O)C1O)C(O)CO (configuration not stated) in this assay?
Ans. inactive

Qu. Could you please tell me the result logged for CC(C)(C)OC(=O)CN1C(=O)CC1CC(=O)c1ccccc1 (configuration not stated) in this assay?
Ans. inactive

Qu. Could you please tell me the result logged for Cc1cc2c(cc1C)N1C(Cl)=C3CCCCC3=C(C#N)C1N2 (configuration not stated) in this assay?
Ans. inactive

Note: attention shifts to another entry.
Qu. Could you please tell me the result logged for N#Cc1cc(C#N)c(N)nc1N in this assay?
Ans. inactive

* * *

- System: SNB-75
- measurement description: NCI tumour cell line growth inhibition, 48 h
Active and inactive are the calls of the source. Rule as the data show it: active = GI50 up to about 1.1 µM and inactive = higher.
Your answer must be one of the following: Y (active), N (inactive)

Qu. Could you please tell me the result logged for C=CCOC(=O)CC[C@H](NC(=O)[C@@H](CCC(F)(F)F)Cc1ccc(O)cc1)C(=O)OCC=C in this assay?
Ans. N

Qu. Could you please tell me the result logged for CN1C(=O)C2C=CC1C1CCC2N(C)C1=O (stereo unspecified) in this assay?
Ans. N

Qu. Could you please tell me the result logged for COc1cc2ccnc3c2c(c1OC)N(C)C=C3 in this assay?
Ans. N

Qu. Could you please tell me the result logged for O=C(CO)CC(=O)C(=O)Nc1cccc(C(F)(F)F)c1 in this assay?
Ans. N

Qu. Could you please tell me the result logged for Cc1cccc(NC(=O)/C=C/c2ccc([N+](=O)[O-])cc2)c1 in this assay?
Ans. N

Qu. Could you please tell me the result logged for COc1ccc(C2C(C(=O)c3ccccc3)=C(O)C(O)(CC(=O)c3ccccc3)N2c2ccc(OC)cc2)cc1 (stereo unspecified) in this assay?
Ans. N

---
Qu. Could you please tell me the result logged for N#Cc1cc(C#N)c(N)nc1N in this assay?
Ans. N

Qu. Could you please tell me the result logged for O=C(CCc1cc(-c2ccco2)n(-c2ccc([N+](=O)[O-])cc2[N+](=O)[O-])n1)Nc1ccccc1 in this assay?
Ans. N

* * *

// reported GI50 per item
- Tested on: K562
- measurement description: NCI tumour cell line growth inhibition, 48 h
Activity calls are given as the source filed them. No stated cut-off is given here; in the data, active = GI50 up to about 1.1 µM and inactive = higher.

Known results for molecules:
Qu. Consider the molecule COc1ccc2oc(=N)c(C(=O)Nc3cccc4ccccc34)cc2c1 and give its measured GI50.
Ans. 0.526 µM (active)

Qu. Consider the molecule CCOC(=O)c1cc2c3c(c(O)c(OC)c2s1)N(C(=O)c1cc2c4c(c(O)c(OC)c2s1)N(C(C)=O)CC4)CC3 and give its measured GI50.
Ans. > 100 µM (inactive)

Qu. Consider the molecule CC1CC(C)CN(S(=O)(=O)c2cc(Cl)c(Oc3ccc([N+](=O)[O-])cc3Cl)c(Cl)c2)C1 (stereo unspecified) and give its measured GI50.
Ans. > 100 µM (inactive)

Qu. Consider the molecule Cc1cc(=O)oc2c3c(ccc12)OC(c1ccc(Br)cc1)CC3=O (stereo unspecified) and give its measured GI50.
Ans. 2.83 µM (inactive)

Qu. Consider the molecule COc1cc(CC(=O)c2cc3c(cc2-c2ccccc2)OCO3)cc(OC)c1OC and give its measured GI50.
Ans. 15.8 µM (inactive)

Qu. Consider the molecule CCN(CC)C(=S)SC [METHYLDIETHYL CARBAMODITHIOATE] and give its measured GI50.
Ans. > 100 µM (inactive)

Qu. Consider the molecule CCCCC(=O)OC[n+]1ccc2c(C)c3[nH]c4ccccc4c3c(C)c2c1 and give its measured GI50.
Ans. 0.186 µM (active)

Qu. Consider the molecule CC(C)=NNc1ncnc2[nH]cnc12 and give its measured GI50.
Ans. > 19.6 µM (inactive)

---
Qu. Consider the molecule COc1cccc2c1C1(O)C2CCCC12OCCCO2 (stereo unspecified) and give its measured GI50.
Ans. > 100 µM (inactive)

Qu. Consider the molecule CCCSc1ccc2[nH]c(N3C(=O)/C(=C/c4ccco4)N=C3c3ccccc3)cc2c1 and give its measured GI50.
Ans. 15.6 µM (inactive)

Qu. Consider the molecule N#Cc1nc(-c2cnccn2)oc1N and give its measured GI50.
Ans. > 100 µM (inactive)

Qu. Consider the molecule O=c1/c(=C/c2ccc(-c3ccc(Cl)cc3Cl)o2)sc2n1[C@@H](c1ccc(Cl)cc1)C=C(c1cc(F)c(Cl)cc1Cl)N=2 and give its measured GI50.
Ans. 38.8 µM (inactive)

Qu. Consider the molecule O=C1Nc2ccc(Br)cc2/C1=C/C(=O)c1ccccc1 and give its measured GI50.
Ans. 5.57 µM (inactive)

Qu. Consider the molecule COc1cc(C(C)O)c[n+](Cc2ccccc2)c1 (stereo unspecified) and give its measured GI50.
Ans. > 100 µM (inactive)

Qu. Consider the molecule COC(=O)[C@]12CC[C@H]3CN(C(=O)OCc4ccccc4)[C@H]([C@H]31)[C@H](C(=O)OCC[Si](C)(C)C)N2S(=O)(=O)c1ccc(C)cc1 and give its measured GI50.
Ans. 15.3 µM (inactive)

Qu. Consider the molecule NNC(=O)C(O)C(O)C(=O)NN (stereo unspecified) and give its measured GI50.
Ans. 36.1 µM (inactive)

Qu. Consider the molecule CC(C)CC(NC=O)C(=O)NC(Cc1ccccc1)NC(=O)CNC(=O)C(C)NC(=O)OC(C)(C)C (stereo unspecified) and give its measured GI50.
Ans. > 100 µM (inactive)

Qu. Consider the molecule OCc1cn(Cc2ccccc2)c2ccccc12 and give its measured GI50.
Ans. 4.48 µM (inactive)

Qu. Consider the molecule COc1ccccc1N=C(S)Nc1ccccn1 and give its measured GI50.
Ans. > 100 µM (inactive)

Qu. Consider the molecule COc1ccc(C2C(C(=O)c3ccccc3)=C(O)C(O)(CC(=O)c3ccccc3)N2c2ccc(OC)cc2)cc1 (stereo unspecified) and give its measured GI50.
Ans. 16.6 µM (inactive)

Qu. Consider the molecule CCCCCCCC/C=C\CCCCCCCCCCCC(=O)O and give its measured GI50.
Ans. 22.1 µM (inactive)
